# Tested on: Escherichia coli ATCC 25922
# methodNotes: Sensitization to erythromycin, novobiocin or rifampicin (permeabilization, FIC)
# measurementParameters: Table 13; with rifampicin (order of b151); Escherichia coli ATCC 25922
Label scheme for concentration required for bacterial growth inhibition: lower than 0.8 µg/mL is criterion not met, 0.8 µg/mL and above is criterion met.

Previously resolved entries follow.
> print(dat)
                            structuresmiles                  assaytarget      categorylabel
1  C[C@H](CCCN(C)Cc1ccccc1)[C@H]1CC[C@H]2[C@@H]3[C@H](OCCN)C[C@@H]4C[C@H](OCCN)CC[C@]4(C)[C@H]3C[C@H](OCCN)[C@]12C  Escherichia coli ATCC 25922  criterion not met
2  C[C@]12CC[C@@H](OCCCN)C[C@H]1C[C@@H](OCCCN)[C@@H]1[C@@H]2C[C@H](OCCCN)[C@]2(C)[C@@H](O)CC[C@@H]12  Escherichia coli ATCC 25922      criterion met

Here's the next entry for you.
Dear colleague, could you confirm whether `C[C@H](CCCO)[C@H]1CC[C@H]2[C@@H]3[C@H](OCCCN)C[C@@H]4C[C@H](OCCCN)CC[C@]4(C)[C@H]3C[C@H](OCCCN)[C@]12C` has concentration required for bacterial growth inhibition at or above 0.8 µg/mL?
criterion not met
